- tested-on: AtPPO1 S305L Y426M (SEQ ID NO.124) (Arabidopsis thaliana, UniProt P55826, S305L/Y426M)
- Construct: made in house; host or cells: E. coli BL21 (DE3) hemG, crude extract
- assay-summary: fluorescent Protoporphyrinogen Oxidase assay, crude extract
- Format: biochemical
- run-conditions: read-out: percentage inhibition
measure-name: inhibition at 1 ppm

>>> reported_result("CCOC(=O)C1(C)CC(c2cc(-n3c(=O)cc(C(F)(F)F)n(C)c3=O)c(F)cc2Cl)=NO1 (centres unmarked) [Herbicide C]")
"88%"
>>> reported_result("CCOC(=O)[C@]1(C)CC(c2cc(-n3c(=O)n(C)c(=S)n(C)c3=O)c(F)cc2Cl)=NO1 [Herbicide D]")
"85%"
>>> reported_result("C#CCN1C(=O)C(F)(F)Oc2cc(F)c(-n3c(=O)n(C)c(=S)n(C)c3=O)cc21 [Herbicide B, trifludimoxazin]")
"100%"
>>> reported_result("CC(C)N(C)S(=O)(=O)NC(=O)c1cc(-n2c(=O)cc(C(F)(F)F)n(C)c2=O)c(F)cc1Cl [Herbicide E, saflufenacil]")
"78%"

API: the following record is the query input.
In: Find inhibition at 1 ppm (AtPPO1 S305L Y426M (SEQ ID NO.124) (Arabidopsis thaliana, UniProt P55826, S305L/Y426M)) for the entry CCOC(=O)COc1ncccc1Oc1cc(-n2c(=O)cc(C(F)(F)F)n(C)c2=O)c(F)cc1Cl [Herbicide A, epyrifenacil]
Out: 82%

* * *

- tested-on: AtPPO1 S305L Y362F G404A (SEQ ID NO.129) (Arabidopsis thaliana, UniProt P55826, G404A/S305L/Y362F)
- Construct: made in house; host or cells: E. coli BL21 (DE3) hemG, crude extract
- assay-summary: fluorescent Protoporphyrinogen Oxidase assay, crude extract
- Assay type: biochemical
- run-conditions: read-out: percentage inhibition
measure-name: inhibition at 1 ppm (%)
Answers are plain numbers, in %.

These recorded examples may help you get a feel for the data.
>>> reported_result("CCOC(=O)COc1ncccc1Oc1cc(-n2c(=O)cc(C(F)(F)F)n(C)c2=O)c(F)cc1Cl [Herbicide A, epyrifenacil]")
78
>>> reported_result("C#CCN1C(=O)C(F)(F)Oc2cc(F)c(-n3c(=O)n(C)c(=S)n(C)c3=O)cc21 [Herbicide B, trifludimoxazin]")
93
>>> reported_result("CC(C)N(C)S(=O)(=O)NC(=O)c1cc(-n2c(=O)cc(C(F)(F)F)n(C)c2=O)c(F)cc1Cl [Herbicide E, saflufenacil]")
53
>>> reported_result("CCOC(=O)C1(C)CC(c2cc(-n3c(=O)cc(C(F)(F)F)n(C)c3=O)c(F)cc2Cl)=NO1 (centres unmarked) [Herbicide C]")
76

Query compound follows.
In: Reported inhibition at 1 ppm, compound CCOC(=O)[C@]1(C)CC(c2cc(-n3c(=O)n(C)c(=S)n(C)c3=O)c(F)cc2Cl)=NO1 [Herbicide D] : ____
Out: 45

* * *

- tested-on: AtPPO1 S305L Y426V (SEQ ID NO.125) (Arabidopsis thaliana, UniProt P55826, S305L/Y426V)
- Construct: made in house; host or cells: E. coli BL21 (DE3) hemG, crude extract
- Sequence (P55826 35-537 S305L/Y426V): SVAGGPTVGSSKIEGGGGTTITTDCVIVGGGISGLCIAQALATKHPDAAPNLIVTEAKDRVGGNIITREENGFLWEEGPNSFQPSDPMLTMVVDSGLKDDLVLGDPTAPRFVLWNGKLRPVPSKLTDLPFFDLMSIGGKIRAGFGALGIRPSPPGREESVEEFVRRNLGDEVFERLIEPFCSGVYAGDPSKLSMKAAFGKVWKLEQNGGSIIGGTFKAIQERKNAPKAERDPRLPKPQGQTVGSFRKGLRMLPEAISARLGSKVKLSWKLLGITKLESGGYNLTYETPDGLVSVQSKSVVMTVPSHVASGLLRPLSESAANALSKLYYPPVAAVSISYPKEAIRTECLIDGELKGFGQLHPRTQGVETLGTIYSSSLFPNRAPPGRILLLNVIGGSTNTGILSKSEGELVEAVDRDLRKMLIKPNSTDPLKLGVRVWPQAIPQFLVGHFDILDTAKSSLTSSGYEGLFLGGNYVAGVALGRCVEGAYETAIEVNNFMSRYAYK
- assay-summary: fluorescent Protoporphyrinogen Oxidase assay, crude extract
- Assay type: biochemical
- run-conditions: read-out: percentage inhibition
I'd appreciate it if you could supply inhibition at 100 ppm values for the items below.
Answers are plain numbers, in %.

Recorded results for 4 compounds are shown here.
>>> reported_result("C#CCN1C(=O)C(F)(F)Oc2cc(F)c(-n3c(=O)n(C)c(=S)n(C)c3=O)cc21 [Herbicide B, trifludimoxazin]")
100
>>> reported_result("CC(C)N(C)S(=O)(=O)NC(=O)c1cc(-n2c(=O)cc(C(F)(F)F)n(C)c2=O)c(F)cc1Cl [Herbicide E, saflufenacil]")
84
>>> reported_result("CCOC(=O)C1(C)CC(c2cc(-n3c(=O)cc(C(F)(F)F)n(C)c3=O)c(F)cc2Cl)=NO1 (centres unmarked) [Herbicide C]")
97
>>> reported_result("CCOC(=O)[C@]1(C)CC(c2cc(-n3c(=O)n(C)c(=S)n(C)c3=O)c(F)cc2Cl)=NO1 [Herbicide D]")
83

Proceed to the following item.
In: May I ask what inhibition at 100 ppm has been recorded for CCOC(=O)COc1ncccc1Oc1cc(-n2c(=O)cc(C(F)(F)F)n(C)c2=O)c(F)cc1Cl [Herbicide A, epyrifenacil] ?
Out: 87

* * *

- tested-on: AtPPO1 V365L Y426V L479N (SEQ ID NO.126) (Arabidopsis thaliana, UniProt P55826, L479N/V365L/Y426V)
- Construct: made in house; host or cells: E. coli BL21 (DE3) hemG, crude extract
- assay-summary: fluorescent Protoporphyrinogen Oxidase assay, crude extract
- Format: biochemical
- run-conditions: read-out: percentage inhibition
Kind request: treat 80% as inclusive, so inhibition at 10 ppm at 80% or higher is 1 (yes), anything lower is 0 (no).

Solved cases below.
>>> answer_label("CC(C)N(C)S(=O)(=O)NC(=O)c1cc(-n2c(=O)cc(C(F)(F)F)n(C)c2=O)c(F)cc1Cl [Herbicide E, saflufenacil]")
"0 (no)"
>>> answer_label("CCOC(=O)[C@]1(C)CC(c2cc(-n3c(=O)n(C)c(=S)n(C)c3=O)c(F)cc2Cl)=NO1 [Herbicide D]")
"1 (yes)"

In: Hi team, for CCOC(=O)COc1ncccc1Oc1cc(-n2c(=O)cc(C(F)(F)F)n(C)c2=O)c(F)cc1Cl [Herbicide A, epyrifenacil] , is the recorded inhibition at 10 ppm at or above 80%?
Out: 0 (no)

In: Now give it for C#CCN1C(=O)C(F)(F)Oc2cc(F)c(-n3c(=O)n(C)c(=S)n(C)c3=O)cc21 [Herbicide B, trifludimoxazin] too.
Out: 1 (yes)

* * *

Assignment: determine reported inhibition at 0.1 ppm for the given compounds.
- tested-on: AtPPO1 S305L Y426V L479M (SEQ ID NO.131) (Arabidopsis thaliana, UniProt P55826, L479M/S305L/Y426V)
- Construct: made in house; host or cells: E. coli BL21 (DE3) hemG, crude extract
- assay-summary: fluorescent Protoporphyrinogen Oxidase assay, crude extract
- Format: biochemical
- run-conditions: read-out: percentage inhibition
Give bare numbers, in %.

Worked cases, answers included:
>>> reported_result("CC(C)N(C)S(=O)(=O)NC(=O)c1cc(-n2c(=O)cc(C(F)(F)F)n(C)c2=O)c(F)cc1Cl [Herbicide E, saflufenacil]")
0
>>> reported_result("CCOC(=O)[C@]1(C)CC(c2cc(-n3c(=O)n(C)c(=S)n(C)c3=O)c(F)cc2Cl)=NO1 [Herbicide D]")
4

// each listed compound needs a value for inhibition at 0.1 ppm
1. CCOC(=O)C1(C)CC(c2cc(-n3c(=O)cc(C(F)(F)F)n(C)c3=O)c(F)cc2Cl)=NO1 (centres unmarked) [Herbicide C]
2. C#CCN1C(=O)C(F)(F)Oc2cc(F)c(-n3c(=O)n(C)c(=S)n(C)c3=O)cc21 [Herbicide B, trifludimoxazin]
3. CCOC(=O)COc1ncccc1Oc1cc(-n2c(=O)cc(C(F)(F)F)n(C)c2=O)c(F)cc1Cl [Herbicide A, epyrifenacil]

Out:
1: 28; 2: 99; 3: 0

* * *

I'd be grateful if you could share measured inhibition at 100 ppm for these entries.
- tested-on: AtPPO1 S305L Y361T V365L T431R L479M (SEQ ID NO.130) (Arabidopsis thaliana, UniProt P55826, L479M/S305L/T431R/V365L/Y361T)
- Construct: made in house; host or cells: E. coli BL21 (DE3) hemG, crude extract
- assay-summary: fluorescent Protoporphyrinogen Oxidase assay, crude extract
- Format: biochemical
- run-conditions: read-out: percentage inhibition
Give bare numbers, in %.

>>> reported_result("CCOC(=O)COc1ncccc1Oc1cc(-n2c(=O)cc(C(F)(F)F)n(C)c2=O)c(F)cc1Cl [Herbicide A, epyrifenacil]")
94
>>> reported_result("CC(C)N(C)S(=O)(=O)NC(=O)c1cc(-n2c(=O)cc(C(F)(F)F)n(C)c2=O)c(F)cc1Cl [Herbicide E, saflufenacil]")
91
>>> reported_result("C#CCN1C(=O)C(F)(F)Oc2cc(F)c(-n3c(=O)n(C)c(=S)n(C)c3=O)cc21 [Herbicide B, trifludimoxazin]")
98

Take each entry in turn and give its inhibition at 100 ppm.
1. CCOC(=O)[C@]1(C)CC(c2cc(-n3c(=O)n(C)c(=S)n(C)c3=O)c(F)cc2Cl)=NO1 [Herbicide D]
2. CCOC(=O)C1(C)CC(c2cc(-n3c(=O)cc(C(F)(F)F)n(C)c3=O)c(F)cc2Cl)=NO1 (centres unmarked) [Herbicide C]

Out:
1. 92
2. 97

These entries and their values trace back to patent US20260297542A1.
